Target: MaxL homodimer (Homo sapiens, UniProt P61244 1-160)
Sequence (P61244 whole entry): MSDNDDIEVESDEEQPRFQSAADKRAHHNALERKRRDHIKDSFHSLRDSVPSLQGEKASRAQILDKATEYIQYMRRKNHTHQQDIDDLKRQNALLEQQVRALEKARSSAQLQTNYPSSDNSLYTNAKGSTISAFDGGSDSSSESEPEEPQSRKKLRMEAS
Assay: universal protein-binding microarray (PBM); PBS-based mixture, 10 nM His-tagged protein dimer, 2% milk, 200 ng/uL BSA, 50 ng/uL salmon testes DNA, 0.02% TX-100; detection with Alexa 488 anti-His antibody;; high values mean tight binding;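 also: fluorescence intensity normalized to that of the highest-ranked 8-mer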
Details: protein: recombinant; tags: C-terminal His-tag (pET21a); chain copies: 2; dsDNA, one strand shown
In all, about 33,000 sequences were measured (“normalized occupancy”: median about 0.075, highest 2% from about 0.095 on). What follows is part of a selection rich in the highest values, with near analogues and random picks from the rest.
Give binding signal for every item shown.
Numbers only, in normalized occupancy.

# example entries with known answers
>>> df
   query_sequence                               system_name  numeric_result
0        CAAATGAC  MaxL homodimer (Homo sapiens, UniProt P61244 1-160)          0.0825
1        AACATGCC  MaxL homodimer (Homo sapiens, UniProt P61244 1-160)           0.089
2        CACACGCG  MaxL homodimer (Homo sapiens, UniProt P61244 1-160)           0.124
3        ACGGCGTG  MaxL homodimer (Homo sapiens, UniProt P61244 1-160)          0.0958
4        ACGCCGCG  MaxL homodimer (Homo sapiens, UniProt P61244 1-160)          0.0773
5        TGAATCCA  MaxL homodimer (Homo sapiens, UniProt P61244 1-160)          0.0757
6        GAGATGCC  MaxL homodimer (Homo sapiens, UniProt P61244 1-160)          0.0786
7        ATGCCAAC  MaxL homodimer (Homo sapiens, UniProt P61244 1-160)          0.0785
8        CACATGAA  MaxL homodimer (Homo sapiens, UniProt P61244 1-160)           0.104
9        CTTTGACC  MaxL homodimer (Homo sapiens, UniProt P61244 1-160)          0.0868

Each of the following entries comes with a recorded value; kindly state binding signal for each.
1. ACGCCGAA
2. CAGATGCG

Result:
1. 0.0725
2. 0.078

---

Give binding signal for every item shown.
Biological target: MaxL homodimer (Homo sapiens, UniProt P61244 1-160)
Experiment: universal protein-binding microarray (PBM); PBS-based mixture, 10 nM His-tagged protein dimer, 2% milk, 200 ng/uL BSA, 50 ng/uL salmon testes DNA, 0.02% TX-100; detection with Alexa 488 anti-His antibody;; high values mean tight binding;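 also: fluorescence intensity normalized to that of the highest-ranked 8-mer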
Conditions: protein: recombinant; tags: C-terminal His-tag (pET21a); chain copies: 2; dsDNA, one strand shown
In all, about 33,000 sequences were measured (“normalized occupancy”: median about 0.075, highest 2% from about 0.095 on). The sample holds the highest values, similar sequences and a random draw of the others, so the mix is not that of the screen.
# include the unit after the value

# example entries with known answers
>>> print(df.to_string())
   query_sequence                       result
0        ACAGCGTG   0.123 normalized occupancy
1        AGCGCGTG   0.117 normalized occupancy
2        CAAGCATC  0.0744 normalized occupancy

Each of the following entries comes with a recorded value; kindly state binding signal for each.
1. AAAGCATA
2. CAGTTGCA
3. GACGTGTA

Result:
0.0783 normalized occupancy
0.0721 normalized occupancy
0.0816 normalized occupancy

Each of the following entries comes with a recorded value; kindly state binding signal for each.
1. AGAGCGTA
2. GATGTTGC
3. CATGTGGA
4. ACAGCGTC
5. CAAGCATG
6. AAACCTTA
7. GTGCTGAA

Result:
["0.0758 normalized occupancy", "0.0781 normalized occupancy", "0.157 normalized occupancy", "0.0731 normalized occupancy", "0.105 normalized occupancy", "0.0742 normalized occupancy", "0.0776 normalized occupancy"]
